Entries annotated with measured growth
Test system: OVCAR-4 ovarian
assay_details: NCI-60 one-dose screen, 48 h (100 = growth as untreated, 0 = no growth, -100 = all killed)
reported_conditions: 10 µM unless noted
The panel holds about 83,000 compounds, 20% with a hit somewhere; the sample as a whole holds those more often.
Your answer should be a plain number; it is taken to be in %.

compound	unit_abbreviation	growth
C=C(C)[C@@H]1CC[C@]2(COC(=O)c3cccnc3)CC[C@]3(C)[C@H](CC[C@@H]4[C@@]5(C)CCCN(C(=O)c6cccnc6)C(C)(C)[C@@H]5CC[C@]43C)[C@@H]12	%	37.6
C=C(C)[C@@H]1CCC[C@]2(C(=O)OC)CC[C@]3(C)[C@@H](CC[C@@H]4[C@@]5(C)CCCNC(C)(C)[C@@H]5CC[C@]43C)[C@@H]12	%	88.1
Cc1cc(C)n(C(=O)CSc2nc3sc4c(c3c(=O)n2-c2ccccc2)CCCCC4)n1	%	94.2
CC(=O)Oc1ccccc1C(=O)N(Cc1ccc2c(Cl)cc(Cl)c(O)c2n1)c1ccccc1	%	36.2
CC(C)n1nc(-c2ccc3oc(N)nc3c2)c2c(N)ncnc21	%	-32.2
COc1ccc(S(=O)(=O)NC2c3ccccc3CC2O)cc1OC (centres undefined)	%	117
Fc1ccc(/C=C/c2cc(/C=C/c3ccc(F)cc3)n(-c3cc(F)cc(F)c3)n2)cc1	%	107
COc1ccc(NC(=O)c2ccc(Cl)cc2Cl)cc1	%	78.7

We next turn to a different compound, shown below.
Inquiry: State the recorded growth for this entry: CNC1=C(Br)C(=O)c2c(C(=O)OC)c(C)nc(C)c2C1=O
Reply text: 35.4

###

System: SW-620 colon
assay_details: NCI-60 one-dose screen, 48 h
reported_conditions: 10 µM unless noted
Protocol: Growth inhibition of the SW-620 human tumor cell line is measured as a screen for anti-cancer activity. Cells are grown in 96 well plates and exposed to the test compound for 48 hours. Compounds are tested at a single concentration, which is 10^-5 M for most compounds. The reported endpoint is percent growth (GI% or GIPRCNT), where numbers from 0 - 100% represent growth inhibition, and numbers from -100% - 0 represent cell death. For example, a value of 40 represents 60% growth inhibition. […]
The panel holds about 83,000 compounds, 20% with a hit somewhere; the sample as a whole holds those more often. Active and inactive are the calls of the source. How the source made its calls: active means growth percent below 10; inactive means the rest.
Give one outcome, nothing more. List: active, inactive

molecule	tested_target	label
CCCn1cnc2c(c1=N)C(c1ccc(Cl)cc1)c1sc3c(F)cccc3c1O2 (configuration not stated)	SW-620 colon	inactive
O=S(=O)(c1ccc(NCSc2nc3ccccc3s2)cc1)c1ccc(NCSc2nc3ccccc3s2)cc1	SW-620 colon	inactive

Inquiry: Short answer needed: outcome of this test for Nc1c(C(=O)c2ccc(Cl)cc2)sc(Nc2ccccc2)c1-c1nc2ccccc2s1 ?
Reply text: inactive

###

Test system: HOP-62 NSCLC
assay_details: NCI-60 one-dose screen, 48 h (100 = growth as untreated, 0 = no growth, -100 = all killed)
reported_conditions: 10 µM unless noted
This is part of a sample that, as a whole, favours compounds with a hit. Of some 83,000 tested, about 20% had one in any assay. The source made the active and inactive calls. How the source made its calls: active means growth percent below 10; inactive means the rest.
property_measured: growth

As a guide, the following entries are already answered.
test_smiles	property_measured	result
O=c1ccc2nc(-c3ccccc3)nn(-c3ccccn3)c-2c1	growth	95.9% (inactive)
CC(C)C(=O)Nc1ncc(C(=O)NCCN(Cc2ccccc2)C(=O)c2ccc(S(=O)(=O)Nc3ccccc3)cc2)s1	growth	94.3% (inactive)
Cc1ccccc1NC(=O)c1sc2nc3c(cc2c1N)CCCC3	growth	27.4% (inactive)

Inquiry: What value of growth has been reported for the following compound? c1ccc(Cn2cc3c(c2)-c2nc(Nc4ccccc4)ncc2CC3)cc1
Reply text: 85.8% [100 µM] (inactive)

Inquiry: Likewise for Cn1cc(-c2nc(-c3c[nH]c4c(Cl)nccc34)cs2)c2ccccc21 ?
Reply text: 92.5% (inactive)

###

Test system: UACC-62 melanoma
assay_details: NCI-60 one-dose screen, 48 h (100 = growth as untreated, 0 = no growth, -100 = all killed)
reported_conditions: 10 µM unless noted
This is part of a sample that, as a whole, favours compounds with a hit. Of some 83,000 tested, about 20% had one in any assay.
This listing pairs molecules with measured growth.
Write the answer as a number in %, unit excluded.

molecule	unit_abbreviation	recorded_number
C=CC(=O)NCc1cccc(Nc2ncc(Br)c(NCCCNC(=O)C3CCC3)n2)c1	%	-41.6

Inquiry: What growth value was documented for this molecule, CNC(=O)c1cc(Oc2ccc3nc(NC(=O)c4cc(C(F)(F)F)cc(C(F)(F)F)c4)sc3c2)ccn1 ?
Reply text: 2.25

###

Recorded growth, one value per entry.
Tested on: HT29 colon
assay_details: NCI-60 one-dose screen, 48 h (100 = growth as untreated, 0 = no growth, -100 = all killed)
reported_conditions: 10 µM unless noted
The panel holds about 83,000 compounds, 20% with a hit somewhere; the sample as a whole holds those more often.
# output: bare number, implied unit %

Examples from the recorded data:
molecule	property_measured	unit_abbreviation	recorded_number
C#CCOc1cccc(Nc2c(Cl)c(CCl)nc3ccc(Oc4ccccc4)cc23)c1	growth	%	7.96
Cc1nn(C)c2ncnc(Nc3ccccc3Br)c12	growth	%	97.7
Cc1cc(C(=O)Nc2cc(Nc3ncccc3-c3ncnc4nc[nH]c34)ccc2F)cc(C(C)(C)C#N)c1	growth	%	24.1
Nc1ncc(-c2ccc3ncnc(N4CCc5ccc(Cl)cc54)c3c2)cn1	growth	%	1.74
COC(=O)c1nc(-c2ccccc2)oc1S(=O)(=O)N1CCN(c2ccc(OC)cc2)CC1	growth	%	43.8
COc1cc(OCc2cccc(-c3ccccc3)c2C)cc(OC)c1CN1CCCCC1C(=O)NCCOCCOCCN (centres undefined)	growth	%	5.46
Cc1c(N2CCCCC2)[nH]c2ccccc12	growth	%	104
C=CCn1c(SCC(=O)Nc2ccc(C(=O)/C=C/c3ccc(Cl)cc3)cc2)nnc1-c1ccccc1	growth	%	89.2

--- query ---
Inquiry: For the molecule shown here, CO[C@]12C=C/C(=C(/C(=O)OCc3cccnc3)C(=O)CCCCCCCC[C@]3(OC)C=C/C(=C(/C(=O)OCc4cccnc4)C(=O)CCCCCCCC1)O3)O2 , give the reported growth.
Reply text: -32.3

###

System: HOP-62 NSCLC
assay_details: NCI-60 one-dose screen, 48 h (100 = growth as untreated, 0 = no growth, -100 = all killed)
reported_conditions: 10 µM unless noted
This is part of a sample that, as a whole, favours compounds with a hit. Of some 83,000 tested, about 20% had one in any assay.
So basically: is growth under 80%? Then TRUE. Not under? Then FALSE.

Solved entries:
molecule	tested_target	label
COc1cc(NC(=O)c2cncnc2Nc2ccc3c(ccn3Cc3cccc(F)c3)c2)cc(OC)c1	HOP-62 NSCLC	TRUE
CN(C)c1ccc(/C=N/NC(=O)CSc2nc3sc4c(c3c(=O)n2-c2ccccc2)CCCCC4)cc1	HOP-62 NSCLC	TRUE
C=C(C[n+]1ccccc1)[C@@H]1CC[C@]2(C(=O)OC)CC[C@]3(C)[C@H](CC[C@@H]4[C@@]5(C)CCC(=O)C(C)(C)[C@@H]5CC[C@]43C)[C@@H]12	HOP-62 NSCLC	FALSE
CC1=NC(=S)NC(c2ccccc2)/C1=C1/CC(c2ccccc2O)NN1 (stereo not drawn)	HOP-62 NSCLC	FALSE

Inquiry: Record CNC(=O)c1cc(Oc2ccc3nc(NC(=O)NC(C)C)sc3c2)ccn1 : is its growth strictly below 80%?
Reply text: TRUE

Inquiry: Repeat with CN1CCN(CC(=O)N(C)c2ccc(N=C(c3ccccc3)c3c(O)[nH]c4ccc([N+](=O)[O-])cc34)cc2)CC1
Reply text: FALSE

Inquiry: Then this molecule: CCCCCCCCCCCCCC[n+]1ccc2c(C)c3c(c(C)c2c1)c1cc(O)ccc1n3CC
Reply text: TRUE

###

Tested on: SN12C renal
assay_details: NCI-60 one-dose screen, 48 h
reported_conditions: 10 µM unless noted
Compounds without any hit were thinned out: in the full panel of roughly 83,000, 20% have a hit. Activity calls are given as the source filed them. Rule for the calls: active = growth percent below 10; inactive = the rest.
Field 'call' accepts T (active), F (inactive)

Past entries and their recorded results:
compound	tested_target	label
O=c1oc2ccccc2cc1-c1nn(-c2ccccc2)cc1/C=N/Nc1nc(-c2ccccc2)c(N=Nc2ccccc2)s1	SN12C renal	F
COc1cc2cc(Oc3ccc(NC(=O)Nc4ccc(F)c(C(F)(F)F)c4)cc3)c(C)nc2cc1OCCN1CCCCC1	SN12C renal	F
COc1ccc(-c2cc(-c3ccc(N(C)C)cc3)nc(NC(=O)c3cccnc3)n2)cc1	SN12C renal	F
CC1(C)CCC[C@]23C(=O)O[C@](O)(C(=O)C4=C[C@@](C)(/C=C/CCCc5ccc6ccc7cccc8ccc5c6c78)CC[C@@]42O)[C@@H]13	SN12C renal	T
COc1ccc(Nc2nccc(Nc3ccc4[nH]ncc4c3)n2)cc1	SN12C renal	F

Inquiry: Hi, sorry to bother you, what did the test record for CCCCCCCCCCCCCC[n+]1ccc2c(C)c3c(c(C)c2c1)c1cc(O)ccc1n3CC ?
Reply text: T
